Quick reference: koff of the listed items.
Target: T1, recombinant human Siglec15-his protein (human, UniProt Q6ZMC9 20-263)
T1 construct: In house made; Biotin-labeled in the capture ELISA
T1 sequence: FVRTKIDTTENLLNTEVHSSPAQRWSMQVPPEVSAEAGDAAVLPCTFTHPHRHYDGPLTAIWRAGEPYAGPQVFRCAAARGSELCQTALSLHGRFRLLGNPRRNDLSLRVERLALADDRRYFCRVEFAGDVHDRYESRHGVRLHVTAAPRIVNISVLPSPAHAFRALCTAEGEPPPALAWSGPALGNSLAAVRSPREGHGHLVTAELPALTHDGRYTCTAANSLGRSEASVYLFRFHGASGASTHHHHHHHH
Assay: SPR Biacore T200, antibody captured by anti-human IgG, antigen as analyte, 1:1 fit
Answer with a number only, understood to be in s⁻¹.

{"binder": "A2A5C7E8 (antibody, V domains shown, Fully human antibody from transgenic mouse hybridoma; also called A2A5C7E8-1) VH: EVQLVQSGAEVKKPGESLRISCKGSGYSFTTYWISWVRQMPGKGLEWMGLIDPSDSYTNYSPSFQGHVTISTDKSISTAYLQWSSLKASDTAMYYCARGGYYGSEEDYWGQGTLVTVSS VL: EIVLTQSPGTLSLSPGERATLSCRASQSVSSSRLAWFQQKSGQAPRLLIFDASSRATGIPDRFSGSGSGTDFTLTISRLEPEDFAVYYCQQYGSSPRTFGQGTKVEFK", "koff [s⁻¹]": "7.45e-05"}
{"binder": "A2A5C7E8-3 (antibody, human IgG1, kappa, V domains shown, Variant of A2A5C7E8 modified in VH CDR2 (X2 = K)) VH: EVQLVQSGAEVKKPGESLRISCKGSGYSFTTYWISWVRQMPGKGLEWMGLIDPSDSYTNYSPSFKGHVTISTDKSISTAYLQWSSLKASDTAMYYCARGGYYGSEEDYWGQGTLVTVSS VL: EIVLTQSPGTLSLSPGERATLSCRASQSVSSSRLAWFQQKSGQAPRLLIFDASSRATGIPDRFSGSGSGTDFTLTISRLEPEDFAVYYCQQYGSSPRTFGQGTKVEFKR", "koff [s⁻¹]": "7.46e-05"}

Recorded koff of A2A5C7E8-2 (antibody, human IgG1, kappa, V domains shown, Variant of A2A5C7E8 modified in VH CDR2 (X1 = E)) VH: EVQLVQSGAEVKKPGESLRISCKGSGYSFTTYWISWVRQMPGKGLEWMGLIDPSESYTNYSPSFQGHVTISTDKSISTAYLQWSSLKASDTAMYYCARGGYYGSEEDYWGQGTLVTVSS VL: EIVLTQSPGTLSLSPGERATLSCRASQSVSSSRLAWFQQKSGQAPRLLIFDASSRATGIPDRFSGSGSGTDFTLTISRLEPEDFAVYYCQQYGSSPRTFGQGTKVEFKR , please. 0.000273

Now consider anti-Siglec15 benchmark (ch5G12) (antibody, human IgG1, kappa, V domains shown, ch5G12 (US 20190202912A1); also called BM; Siglec15-ch5G9) VH: QVQLQQPGAELVKPGASVKMSCKASGYTFTSYWITWVIQRPGQGLEWIGDIYCGSDTMHYNEKFKNKATLTVDTSSSTAYMQLSSLTSEDSAVYYCARWWDYGSSYDYFDYWGQGTTLTVSS VL: DIKMTQSPSSMYASLGERVTITCKASQDINSYLSWFQQKPGKSPKTLIYRANRLVDGVPSRFSGSGSGQDYSLTISSLEYEDMGIYYCLQYDEFPYTFGGGTKLEIKR and answer again. 0.000955
